Target: Pro-neuregulin-1, membrane-bound isoform (Homo sapiens) (UniProt Q02297)
Sequence (Q02297 whole entry, looked up, canonical isoform): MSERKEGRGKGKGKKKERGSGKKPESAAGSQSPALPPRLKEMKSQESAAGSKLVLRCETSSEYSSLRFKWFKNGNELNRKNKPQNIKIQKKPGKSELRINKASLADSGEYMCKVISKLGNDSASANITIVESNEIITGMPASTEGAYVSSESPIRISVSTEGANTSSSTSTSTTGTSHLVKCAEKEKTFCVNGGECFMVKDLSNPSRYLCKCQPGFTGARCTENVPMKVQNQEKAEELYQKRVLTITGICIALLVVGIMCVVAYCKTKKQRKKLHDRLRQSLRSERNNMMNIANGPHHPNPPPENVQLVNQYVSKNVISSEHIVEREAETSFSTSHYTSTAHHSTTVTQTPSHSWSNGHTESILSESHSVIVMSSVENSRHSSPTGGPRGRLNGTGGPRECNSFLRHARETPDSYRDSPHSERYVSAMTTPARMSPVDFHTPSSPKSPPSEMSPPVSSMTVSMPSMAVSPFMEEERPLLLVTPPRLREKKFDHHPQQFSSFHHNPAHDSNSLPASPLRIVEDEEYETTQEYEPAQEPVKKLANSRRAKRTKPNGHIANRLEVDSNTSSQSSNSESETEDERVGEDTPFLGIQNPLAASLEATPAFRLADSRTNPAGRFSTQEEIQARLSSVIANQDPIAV
Assay: NRG1 binders on small-molecule microarrays, primary screen, psychiatric disease protein project, biochemical, small-molecule microarray, fluorescence 635/667 (AID 1075);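 also: score combines 667 nm spot fluorescence with signal to noise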
Details: NRG1 binding, 635 nm fluorescence, higher = more signal
Quantity Name: composite z-score
One number for each entry.

COc1cccc([C@H]2Oc3ccc(OC)cc3C(=NO[C@H](C)c3cn([C@H](CO)Cc4ccccc4)nn3)[C@@H]2O)c1 :: -0.72
COC(=O)CC=C[C@@H](C)[C@@H](C=NO[C@@H](C)c1cn([C@H](CO)Cc2ccccc2)nn1)NS(=O)(=O)c1ccc(C)cc1 :: -0.0443
CCOC(=O)[C@H](Cc1ccccc1)NC(=O)CCC1CC(OC(=O)NCc2cccc3ccccc23)CC2(CCCC(COC(=O)NCc3ccccc3)O2)O1 (stereo partly specified) :: 0.477
C=Cc1ccc([C@H]2N[C@H](C(=O)O)CC[C@@H]2C)cc1 :: -0.284
COc1cccc([C@H]2Oc3ccc(OC)cc3C(=NOC[C@@H](O)COCc3ccco3)[C@@H]2O)c1 :: -0.984
CC(C)CON=C1[C@H]2CCn3c(=O)n(Cc4cc5c(cc4Cl)OCO5)c(=O)n3[C@H]2[C@H](O)[C@@H]2O[C@H]12 :: 0.142
CC(C)(C)N1C(=O)[C@H]2[C@H]3[C@H](O)[C@H](O)CC(=O)[C@H]3CC[C@H]2C1=O :: 0.354
Cc1cc2c(nc1C)CCCCN2CC(C)ON=C1[C@H]2CCn3c(=O)n(-c4ccccc4)c(=O)n3[C@H]2[C@H](O)[C@@H]2O[C@H]12 (stereo partly specified) :: -0.349
CO[C@H]1COC(=O)[C@@H](Cc2ccccc2)NC(=O)[C@@H](C)COC(=O)CCC[C@@H]1C :: -0.203
CON=Cc1ccc(C(=O)N2[C@H](c3ccc(C)cc3)[C@@H](C)CC[C@H]2C(=O)OC)cc1 :: 0.424

Next:
The compound identified as CON=C(C)CCC(=O)OC[C@H]1O[C@H](c2ccccc2)C=C[C@@H]1Oc1ccc(OC)cc1 registered its composite z-score at -0.351

---

System: Sam68 (KHDRBS1)
Assay: Sam68 small-molecule binders, primary screen, biochemical, small-molecule microarray, 635 nm fluorescence (AID 1125);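 also: score merges 667 nm channel intensity with signal to noise over triplicate slides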
Conditions: small-molecule microarray binding, higher = more signal
Quantity Name: composite z-score
Give bare numbers.

CCOC(=O)CCN1C(=O)[C@H]2[C@H]3[C@H](O)[C@H](O)CC(=NOCC(C)C)[C@H]3CC[C@H]2C1=O :: -0.353
CCOC(=O)NN=C1C[C@@H](O)[C@@H](O)[C@@H]2[C@@H]3C(=O)N([C@@H](C)c4ccccc4)C(=O)[C@@H]3CC[C@@H]12 :: 1.23
CCOC(=O)C1=NO[C@]2(C=C(Br)C3(OCCCO3)[C@H]3O[C@H]32)C1 :: -0.638
O=C1CCCC=C1C(O)CCCCBr (stereo unspecified) :: 0.381

For every listed record, write down its composite z-score.
1. CC(C)CCN1CCc2nc(COc3ccccc3)c3c(c2C1)CO[C@@H](C)C3
2. CC(C)CON=C1C[C@@H](O)[C@@H](O)[C@@H]2[C@@H]3C(=O)N(c4ccc(F)cc4F)C(=O)[C@@H]3CC[C@H]12

Output:
1. 0.0676
2. 1.28

---

Assay: small-molecule microarray binders of probe aNog, primary screen, biochemical, biotinylated probe, 635/667 nm fluorescence (AID 1115);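 also: probe is biotinylated aNog protein used at 0.15 µg/mL for 1 h at 4 C; z-score combines 667 nm fluorescence of each spot with its signal to noise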
Conditions: higher = more signal
Quantity Name: composite z-score
Give bare numbers.

Solved cases (4 shown):
CCOC(=O)[C@H](Cc1ccccc1)NC(=O)CCC1CC(OC(=O)NCCc2ccc(F)cc2)CC2(CCCC(COC(=O)NCCc3ccccc3OC)O2)O1 (stereo not given in full) :: -0.285
CO[C@H]1COC(=O)[C@H](C)NC(=O)[C@@H](C)COC(=O)[C@H]2CCCN2C(=O)CC=C[C@H]1C :: -0.28
Cn1c(=O)n2n(c1=O)[C@H]1[C@H](O)[C@@H]3O[C@@H]3C(=O)[C@H]1CC2 :: -0.234
CC(C)(C)N1C(=O)[C@H]2[C@H]3[C@H](O)[C@H](O)CC(=NO[C@@H]4O[C@H](CO)[C@@H](O)[C@H](O)[C@H]4O)[C@H]3CC[C@H]2C1=O :: -0.196

Now, please, on to the next compound.
Briefly, composite z-score measured for COC(=O)CC=C[C@@H](C)[C@@H](C=NOC[C@H]1O[C@H](c2ccccc2)C=C[C@@H]1Oc1ccc(OC)cc1)OC : -0.44

---

Assay: P. aeruginosa biofilm formation inhibitors, primary screen, strain PAO1, LB-PBS medium, absorbance 600 nm (AID 1176); also: test concentration not given here
Settings: P. aeruginosa PAO1 growth/biofilm, A600, 12 h; higher = more signal
Quantity Name: z-score
One number for each entry.

// below: answered compounds
CCOC(=O)CCN1C(=O)[C@H]2[C@H]3[C@H](O)[C@H](O)CC(=NNC(=O)OCc4ccccc4)[C@@H]3CC[C@H]2C1=O :: -0.331
Cc1ccc(S(=O)(=O)NC(CCc2ccccc2)CC(=O)C(C)(C)C)cc1 (centres undefined) :: 0.143
CCOC(=O)[C@H](CC(C)C)NC(=O)CCC1CC(OC(=O)NCCc2ccc(F)cc2)CC2(CCCC(COC(=O)NCC3CCCCC3)O2)O1 (some centres undefined) :: 0.201

Notebook: O=C(NN=C1C[C@@H](O)[C@@H](O)[C@@H]2[C@@H]3C(=O)N(Cc4ccccc4)C(=O)[C@@H]3CC[C@@H]12)OCc1ccccc1 , z-score read as 0.352

---

Target: Torsin-1A (Homo sapiens)
Experiment: torsin A binders from cell lysate, primary screen, small-molecule microarray, wild-type, 635/667 nm (AID 1149)
Conditions: COS7 hTOR1A-WT lysate, 635 nm fluorescence, higher = more signal
Please note: rule met applies when composite z-score is 0.2 or greater, and rule not met applies otherwise.

O=C1[C@H]2[C@H]3[C@H](O)[C@H](O)CC(=NO[C@@H]4O[C@H](CO)[C@@H](O)[C@H](O)[C@H]4O)[C@H]3CC[C@H]2C(=O)N1c1cccc(Oc2ccccc2)c1 :: rule met
COc1cccc([C@H]2Oc3ccc(OC)cc3C(=NO[C@H](C)c3cn([C@H](CO)Cc4ccccc4)nn3)[C@@H]2O)c1 :: rule not met
CO[C@@H]1COC(=O)CC=C[C@H](C)[C@H](OC)COC(=O)[C@H](C)NC(=O)CC=C[C@H]1C :: rule met
CCCCC#C[C@@H]1C=C[C@H](OC(C)=O)[C@@H](COC(C)=O)O1 :: rule met
CO[C@@H]1COC(=O)CC=C[C@@H](C)[C@H](OC)COC(=O)[C@@H](C)COC(=O)CC=C[C@H]1C :: rule met
CC(C)=CCCC(C)=CCON=C1C[C@@H](O)[C@@H](O)[C@@H]2[C@@H]3C(=O)N(c4ccc(F)cc4F)C(=O)[C@@H]3CC[C@@H]12 :: rule met
COc1ccc(O[C@H]2C=C[C@@H](c3ccccc3)O[C@@H]2CON=C2[C@H]3CCn4c(=O)n(-c5ccccc5)c(=O)n4[C@H]3[C@H](O)[C@@H]3O[C@H]23)cc1 :: rule not met
CC(C)CON=C1C[C@@H](O)[C@@H](O)[C@@H]2[C@@H]3C(=O)N(c4ccc(F)cc4F)C(=O)[C@@H]3CC[C@H]12 :: rule met
CCOC(=O)NN=C1C[C@@H](O)[C@@H](O)[C@@H]2[C@@H]3C(=O)N([C@@H](C)c4ccccc4)C(=O)[C@@H]3CC[C@H]12 :: rule met
CO[C@H]1COC(=O)[C@@H](C)COC(=O)[C@H](C)NC(=O)CC=C[C@H]1C :: rule met

Input: Is the recorded value of composite z-score equal to or greater than 0.2 for this compound? CCOC(=O)NN=C1C[C@@H](O)[C@@H](O)[C@@H]2[C@@H]3C(=O)N(Cc4ccccc4)C(=O)[C@@H]3CC[C@H]12
Output: rule not met

Input: Confirm if composite z-score reported for the compound CO[C@H]1COC(=O)CC=C[C@H](C)[C@@H](OC)COC(=O)[C@@H](C)NC(=O)CC=C[C@@H]1C is 0.2 or above.
Output: rule met

Input: # check: composite z-score of CC(=O)OC[C@H]1O[C@@H](ON=C(C)CCN2CCCc3nc(C)c(C)cc32)[C@H](OC(C)=O)[C@@H](OC(C)=O)[C@@H]1OC(C)=O is greater than or equal to 0.2
Output: rule not met

Input: Check if composite z-score >= 0.2 (inclusive). Item: C#CCCCON=C1[C@H]2CCn3c(=O)n(C)c(=O)n3[C@H]2[C@H](O)[C@@H]2O[C@H]12
Output: rule met

Input: Is reported composite z-score greater than or equal to 0.2 here: C[C@@H](c1ccccc1)N1C(=O)[C@H]2[C@H]3[C@H](O)[C@H](O)CC(=NO[C@@H]4O[C@H](CO)[C@@H](O)[C@H](O)[C@H]4O)[C@@H]3CC[C@H]2C1=O
Output: rule met
